test system: SW-620 colon; assay: NCI tumour cell line growth inhibition, 48 h
assay endpoint: TGI

Worked cases, answers included:
CN(C)c1ccc(/C=C/c2ccnc3ccccc23)cc1N; 33.3 µM
CNC(=O)c1n[nH]n(Cc2ccccc2)c1=S; > 100 µM
c1cc2cc(c1)CN1CCNCCN(CCNCC1)Cc1cccc(c1)CN1CCNCCN(CCNCC1)C2; > 100 µM
CC(=O)c1c(O)ccc2c(C)c(C(=O)O)oc12; > 100 µM
CC(=O)O[C@H]1CC[C@H]2[C@@H]3CCC4=C(C(=O)C=CC4(C)OC(C)=O)[C@H]3CC[C@]12C (stereo not given in full); > 100 µM
CN(C)CC(C)(C)C(/C=C/c1ccccc1)=N\Nc1ccccc1; 10.4 µM
O=Cc1[nH]c(=O)[nH]c(=O)c1CCl; > 100 µM
COc1ccc(-c2oc3cc(OC)c(OC)c(OC)c3c(=O)c2OC)cc1OC; > 100 µM
O=C1SC(c2ccccc2)(c2ccccc2)c2ccccc21; > 100 µM

# next compound below
Ask | # TGI lookup, item O=C1/C(=C/c2ccc(Cl)cc2)CN(Cc2cn(CCNc3ccnc4cc(Cl)ccc34)nn2)C/C1=C\c1ccc(Cl)cc1
Reply | 0.83 µM

* * *

tested on: A549 NSCLC; assay: NCI tumour cell line growth inhibition, 48 h; in the data active = GI50 below about 0.43 µM; inactive = the rest
Pick one: active, inactive

Ask | Returns: the outcome recorded for NC(N)=N/N=C(/c1ccccc1)c1ccc(Cl)cc1 in this assay.
Reply | inactive

Ask | Please give the result for Cc1ccc(/C=C/C(=O)c2ccc(N)cc2)c(C)c1 too.
Reply | inactive

Ask | Check COc1cc(-n2cc(-c3ccc(F)cc3)[nH]c2=S)cc(OC)c1OC too.
Reply | inactive

Ask | Same question for CC1CC(C)/C(=N/NC(N)=O)C(C(O)CC2CCC(=O)NC2=O)C1 (stereo unspecified) please.
Reply | inactive

Ask | # iterate: CCC[CH2][Sn]1([CH2]CCC)[O]C(=O)c2cccc(OC)c2[O]1
Reply | inactive

Ask | Moving on to the next molecule: O=C(NCC(=O)N1CC[C@H](NC2CCC(O)(c3ccc(-c4ncccn4)cn3)CC2)C1)c1cccc(C(F)(F)F)c1 (stereo partly specified)
Reply | inactive

Ask | Same thing, different molecule: CN1C(=O)c2cc([N+](=O)[O-])ccc2[C@H]2C(=O)c3cc4c(cc3[C@H]21)OCO4
Reply | active

Ask | Then CCCCCCCCCCCCSC(=NC)NC ?
Reply | inactive

Ask | Entry to check: COC(=O)c1cc2c3ccccc3n3c(=O)c4cc5cc(OC)c(N(S(=O)(=O)c6ccc(C)cc6)S(=O)(=O)c6ccc(C)cc6)cc5nc4c(n1)c23
Reply | inactive

* * *

system: MOLT-4 leukemia; experiment: NCI tumour cell line growth inhibition, 48 h
Collected TGI values appear next to each entry.

The examples below pair each entry with its known result.
O=C1N(CN2CCOCC2)CN(CN2CCOCC2)C(=O)N1Cc1ccccc1; 39.3 µM
COc1ccccc1-c1nc2ccccc2c(=O)[nH]1; > 100 µM
CC(C)/C(Cl)=N\OC(=O)Nc1ccc(F)c([N+](=O)[O-])c1; 4.94 µM
Cc1ccc(NSc2ccccc2[N+](=O)[O-])cc1; > 62.7 µM
COc1ccc(NC(=O)COC(=O)c2cccc3c(=O)c4ccccc4[nH]c23)cc1; 33.7 µM

Ask | Quick one: TGI of O=C(Nc1cccc([N+](=O)[O-])c1)c1ccc2ccccc2c1O ?
Reply | > 46.5 µM

Ask | How about NC(N)=NS(=O)(=O)c1ccc(Nc2c3ccccc3nc3c(C(=O)NC(CO)(CO)CO)cccc23)cc1 ?
Reply | > 100 µM

Ask | Same question, COc1cc(C2c3[nH]c4ccc(F)cc4c3C[C@H]3COC(=O)N23)cc(OC)c1O (stereo partly specified) this time
Reply | > 100 µM

Ask | Now try O=C(O)C(Cc1cnc[nH]1)N=Cc1nc(-c2ccccc2)oc1O (stereo unspecified) .
Reply | > 100 µM

Ask | Now the same for O=C(O)CSc1nnc(CCCCCCCCc2nnc(SCC(=O)O)o2)o1
Reply | > 100 µM

Ask | Okay, and COP(=O)(OC)C(O)/C=C(\Cl)c1ccc(Cl)cc1 (stereo unspecified) ?
Reply | 86.1 µM

The reported measurements were obtained from PubChem BioAssay (NCI).
